Target desc: Human immunodeficiency virus type 1 integrase (Human immunodeficiency virus 1)
Sequence (Q7ZJM1 whole entry): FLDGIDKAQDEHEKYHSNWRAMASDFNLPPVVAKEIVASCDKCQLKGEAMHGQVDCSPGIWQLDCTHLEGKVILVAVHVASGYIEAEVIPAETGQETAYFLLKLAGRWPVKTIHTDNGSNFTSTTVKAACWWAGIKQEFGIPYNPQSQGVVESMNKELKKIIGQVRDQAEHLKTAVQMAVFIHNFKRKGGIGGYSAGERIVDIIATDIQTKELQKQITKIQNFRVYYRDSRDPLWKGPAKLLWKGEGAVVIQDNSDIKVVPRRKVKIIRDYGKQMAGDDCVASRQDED
Assay info: Inhibition of HIV1 integrase strand transfer activity
pIC50: −log10 of the molar value.
Readout label: pIC50

[
  {
    "Molecule": "CN1C(=O)[C@@H](c2cc(Cl)c(O)c(Cl)c2)NC(=O)[C@@H]2NC(=O)[C@@H](c3cc(Cl)c(O)c(Cl)c3)NC(=O)[C@H](NC(=O)C(=O)c3cc(Cl)c(O)c(Cl)c3)Cc3c[nH]c4c(cccc34)-c3cc2cc(c3O)Oc2ccc(cc2)C[C@H]1C(=O)N[C@@H](C(=O)O)c1ccc(O)cc1",
    "Readout label": "pIC50",
    "Obs value": 5.30
  },
  {
    "Molecule": "CN1C(=O)[C@@H](c2cc(Cl)c(O)c(Cl)c2)NC(=O)[C@@H]2NC(=O)[C@@H](c3cc(Cl)c(O)c(Cl)c3)NC(=O)[C@H](NC(=O)C(=O)c3cc(Cl)c(O)c(Cl)c3)CC3(O)C(=O)Nc4cc(ccc43)-c3cc2cc(c3O)Oc2ccc(cc2)C[C@H]1C(=O)N[C@@H](C(=O)O)c1ccc(O)cc1 (stereo partly drawn)",
    "Readout label": "pIC50",
    "Obs value": 4.90
  },
  {
    "Molecule": "CN1C(=O)[C@@H](c2cc(Cl)c(O)c(Cl)c2)NC(=O)[C@@H]2NC(=O)[C@@H](c3cc(Cl)c(O)c(Cl)c3)NC(=O)[C@H](NC(=O)C(=O)c3cc(Cl)c(O)c(Cl)c3)CC3C(=O)Nc4cc(ccc43)-c3cc2cc(c3O)Oc2ccc(cc2)C[C@H]1C(=O)N[C@@H](C(=O)O)c1ccc(O)cc1 (stereo partly drawn)",
    "Readout label": "pIC50",
    "Obs value": 4.90
  }
]
